meta.source: PubChem BioAssay (NCI)

Test system: PC-3 prostate
Experiment: NCI-60 one-dose screen, 48 h
Details: 10 µM unless noted
About 83,000 compounds went through this panel and 20% of them were active in at least one assay; those are over-represented in the sample as a whole. Calls of active or inactive are those of the source. How the source made its calls: active means growth percent below 10; inactive means the rest.
Log the outcome using a class from 1 (active), -1 (inactive)

Qu. Tell me the assay call for `Cc1cc(O)cc(O)c1N=NC1=NCCS1` please.
Ans. -1

Qu. Tell me the assay call for `CCOCc1nc2ccccc2c(=O)[nH]1` please.
Ans. -1

Qu. Tell me the assay call for `Cc1ccc2nc3nc4ccc[nH]c4cc3c2c1` please.
Ans. -1

Qu. Tell me the assay call for `Nc1ccccc1NS(=O)(=O)c1ccc(Cl)cc1` please.
Ans. -1

Qu. Tell me the assay call for `Cc1c(C(=O)Nc2nc3ccccc3[nH]2)cnn1-c1ccccn1` please.
Ans. -1

Qu. Tell me the assay call for `COc1ccc(Nc2cc(NC(=O)CNc3cc(OC)c(Cl)c(OC)c3Cl)ncn2)cc1` please.
Ans. -1

Qu. Tell me the assay call for Cc1nc2sc(C(=O)Nc3cccc4ccccc34)c(N)c2cc1C(C)O (stereo not given) please.
Ans. -1

Qu. Tell me the assay call for `Nc1cccc(C(=O)Nc2ccc3c(O)c(N=Nc4ccc(N=Nc5ccc(S(=O)(=O)O)cc5)cc4)c(S(=O)(=O)O)cc3c2)c1` please.
Ans. -1

Qu. Tell me the assay call for COc1ccc(C2=NN(c3ccc(S(N)(=O)=O)cc3)C(c3ccc(Cl)cc3)C2)c(O)c1 (stereo not given) please.
Ans. -1

Qu. Tell me the assay call for `COc1ccc(-c2nnc(N3CCN(C(=O)CN4CCN(c5ccc(OC)cc5)CC4)CC3)nc2-c2ccc(OC)cc2)cc1` please.
Ans. 1

* * *

Tested on: MCF7 breast
Test: NCI-60 one-dose screen, 48 h (100 = growth as untreated, 0 = no growth, -100 = all killed)
Conditions: 10 µM unless noted
The panel holds about 83,000 compounds, 20% with a hit somewhere; the sample as a whole holds those more often.
// NB: equality with 30% counts as Condition not met; only growth strictly below is Condition met

Qu. For this compound, is growth lower than 30%? `O=C1CS/C(=N/c2nnc(-c3ccc(O)cc3)s2)N1`
Ans. Condition not met

Qu. For this compound, is growth lower than 30%? `C(=C\c1cn(-c2ccccc2)nc1-c1ccccc1)/c1nnc(-c2c[nH]c3ccccc23)o1`
Ans. Condition not met

Qu. For this compound, is growth lower than 30%? `Cc1ccc(CS/C(=C\c2ccc([N+](=O)[O-])cc2)C(=O)c2ccc(F)cc2)cc1`
Ans. Condition met

Qu. For this compound, is growth lower than 30%? c1ccc2c3c([nH]c2c1)C(c1ccc(C2NCCc4c2[nH]c2ccccc42)cc1)NCC3 (centres undefined)
Ans. Condition met

Qu. For this compound, is growth lower than 30%? `C#CCN(CCCOc1ccc(Cl)cc1Cl)CCCSC(=O)CCCCCN1/C(=C\C=C2/CCCC(/C=C/C3=[N+](CCCCCC(=O)[O-])c4ccccc4C3(C)C)=C2Cl)C(C)(C)c2ccccc21`
Ans. Condition met

Qu. For this compound, is growth lower than 30%? `COc1ccc(C(=O)c2cc(F)c(F)c(OC)c2F)cc1OC(=O)CCl`
Ans. Condition met

Qu. For this compound, is growth lower than 30%? `CCOC(=O)c1c(-c2ccc(O)cc2)c(C#N)c2c(C#N)c(N)nn2c1N`
Ans. Condition not met

Qu. For this compound, is growth lower than 30%? `Cc1cc(C)c2nc(Nc3nc(C)c(C)c(=O)[nH]3)nc(C)c2c1`
Ans. Condition met

Qu. For this compound, is growth lower than 30%? `COc1ccc(/C(=N\O)c2cc(C)c(OC)c(C)c2)cc1O`
Ans. Condition met

Qu. For this compound, is growth lower than 30%? `CCOCc1nc2ccccc2c(=O)[nH]1`
Ans. Condition not met

Qu. For this compound, is growth lower than 30%? `N#C/C(=C/c1ccc(O)c([N+](=O)[O-])c1)c1nc(-c2ccc([N+](=O)[O-])cc2)cs1`
Ans. Condition met

Qu. For this compound, is growth lower than 30%? `O=S(=O)(Nc1nccs1)c1ccc(Nc2nc(-c3ccncc3)cs2)cc1`
Ans. Condition not met

Qu. For this compound, is growth lower than 30%? `CC(=O)[C@@H]1CC[C@]2(C(=O)O)CC[C@]3(C)[C@H](CC[C@@H]4[C@@]5(C)Cc6c([nH]c7ccccc67)C(C)(C)[C@@H]5CC[C@]43C)[C@@H]12`
Ans. Condition not met

Qu. For this compound, is growth lower than 30%? Cc1nc2sc(C(=O)Nc3cccc(Cl)c3C)c(N)c2cc1C(C)O (centres undefined)
Ans. Condition met

Qu. For this compound, is growth lower than 30%? `COc1ccc2[nH]c3nc4cnccc4cc3c2c1`
Ans. Condition not met

Qu. For this compound, is growth lower than 30%? `CC(C)(C)c1ccc(O)c(Cc2cc(C(C)(C)C)ccc2O)c1`
Ans. Condition not met

Qu. For this compound, is growth lower than 30%? `COc1cc(C)ccc1Oc1nc(Nc2ccc(N3CCOCC3)cc2)ncc1N=Cc1cc(C(F)(F)F)cc(C(F)(F)F)c1`
Ans. Condition not met

Qu. For this compound, is growth lower than 30%? `Cc1cc(C)cc(Nc2nccc(-c3c(-c4ccc(F)cc4)ncn3C3CCNCC3)n2)c1`
Ans. Condition met

Qu. For this compound, is growth lower than 30%? `COc1ccc2[nH]c(=O)c(/C=C/C(=O)/C=C/c3ccc(O)c(OC)c3)cc2c1`
Ans. Condition met
